B1: TSN (parent)
chain: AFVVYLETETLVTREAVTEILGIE

# Variants of: B1
# TEST_METHOD_NOTES: protein stability index of a GFP-peptide fusion (GPS, HEK-293T) (PSI 1-6); higher = more stable;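 further: lentivirally expressed fusions sorted by FACS into six bins by GFP to DsRed ratio, PSI derived from sequencing read proportions per bin multiplied by bin number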
# CONDITION_SUMMARY: c terminus: a fixed tail appended
PARAMETER: protein stability index
// no unit, no text: just the number

Example entries and their recorded answers appear below.
Q: Need protein stability index of AFVVYLETETLVTREAVHEILGIE [T18H] , thanks.
A: 4.07

Q: Need protein stability index of AFVVYLETETLVTREAVTWILGIE [E19W] , thanks.
A: 2.4

Q: Need protein stability index of AFVVYLETETLVEREAVTEILGIE [T13E] , thanks.
A: 1.06

Q: Need protein stability index of AFVGYLETETLVTREAVTEILGIE [V4G] , thanks.
A: 2.53

Q: Need protein stability index of AFVVYLETETLVTRLAVTEILGIE [E15L] , thanks.
A: 2.17

***
Q: Need protein stability index of MFVVYLETETLVTREAVTEILGIE [A1M] , thanks.
A: 2.61

Q: Need protein stability index of AFVVGLETETLVTREAVTEILGIE [Y5G] , thanks.
A: 2.5
